- System under test: EGFRL858R (Homo sapiens, UniProt P00533, L858R)
- Sequence (P00533 25-1210 L858R): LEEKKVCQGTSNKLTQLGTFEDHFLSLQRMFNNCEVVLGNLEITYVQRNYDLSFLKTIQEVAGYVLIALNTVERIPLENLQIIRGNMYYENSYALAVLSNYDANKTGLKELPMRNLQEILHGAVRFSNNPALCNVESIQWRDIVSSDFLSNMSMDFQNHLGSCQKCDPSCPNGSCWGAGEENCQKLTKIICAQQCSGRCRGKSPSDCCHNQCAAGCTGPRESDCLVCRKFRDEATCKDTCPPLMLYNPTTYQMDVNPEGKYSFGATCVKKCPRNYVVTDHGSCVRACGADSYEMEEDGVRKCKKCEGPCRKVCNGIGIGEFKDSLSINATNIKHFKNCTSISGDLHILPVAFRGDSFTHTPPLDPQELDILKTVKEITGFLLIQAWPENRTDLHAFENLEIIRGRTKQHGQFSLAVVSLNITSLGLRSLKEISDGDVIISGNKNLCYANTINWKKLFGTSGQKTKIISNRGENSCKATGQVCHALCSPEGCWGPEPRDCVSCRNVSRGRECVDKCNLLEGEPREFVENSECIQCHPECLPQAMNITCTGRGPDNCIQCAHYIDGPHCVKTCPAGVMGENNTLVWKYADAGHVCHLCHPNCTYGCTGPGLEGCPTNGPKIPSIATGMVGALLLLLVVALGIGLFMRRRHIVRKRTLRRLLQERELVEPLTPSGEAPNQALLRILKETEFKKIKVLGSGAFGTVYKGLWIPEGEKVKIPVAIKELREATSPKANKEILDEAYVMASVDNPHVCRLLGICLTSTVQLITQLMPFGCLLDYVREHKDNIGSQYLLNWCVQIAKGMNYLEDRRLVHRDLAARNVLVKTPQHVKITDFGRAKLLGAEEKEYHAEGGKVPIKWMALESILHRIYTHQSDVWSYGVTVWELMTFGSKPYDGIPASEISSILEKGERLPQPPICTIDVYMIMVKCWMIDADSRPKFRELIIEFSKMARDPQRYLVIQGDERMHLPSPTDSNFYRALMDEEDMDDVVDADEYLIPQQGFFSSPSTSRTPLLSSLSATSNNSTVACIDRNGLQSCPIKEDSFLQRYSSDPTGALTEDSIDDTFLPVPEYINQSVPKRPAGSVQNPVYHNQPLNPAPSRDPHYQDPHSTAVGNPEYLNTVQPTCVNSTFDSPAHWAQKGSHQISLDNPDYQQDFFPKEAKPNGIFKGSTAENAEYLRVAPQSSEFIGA
- Test: KINOMEScan KdELECT Kd determination
- Experimental parameters: L858R
Quick reference for pKd among some compounds
Lab note — pKd values are minus log10 of concentrations in M.

Smiles code | pKd
COc1cc2ncnc(Nc3ccc(F)c(Cl)c3)c2cc1OCCON1CCOCC1 | 9.10

Could you now look at the following compound, please?
Reported pKd for EGFRL858R (Homo sapiens, UniProt P00533, L858R), given `COc1cc2ncnc(Nc3ccc(F)c(Cl)c3)c2cc1OCCON1CCN(C)CC1` ? 9.22

---

- Test: Plasma stability
- Format: in vitro ADME, Sprague-Dawley rat
- Experimental parameters: rat plasma, 60 min
Recorded endpoint: Remaining Percentages (%)
Give just the number in %; leave the unit off.

Below are worked cases with known answers.
Compound | Value measured
CC[C@H](C)C(=O)O[C@H]1C[C@@H](C)C=C2C=C[C@H](C)[C@H](CC[C@@H]3C[C@@H](O)CC(=O)O3)[C@H]21 [Mevinolin, reference compound] | 0.30
COc1cc2ncnc(Nc3ccc(F)c(Cl)c3)c2cc1OCCCN1CCOCC1 [Gefitinib (1), Gefitinib, reference compound] | 95.04
COc1cc2ncnc(Nc3cccc(Cl)c3F)c2cc1OCCON1CCN(C)CC1 | 99.37

Requested read-out: Remaining Percentages. Entry: `COc1cc2ncnc(Nc3ccc(F)c(Cl)c3)c2cc1OCCON1CCOCC1` 99.28

Would you kindly repeat that for `COc1cc2ncnc(Nc3cccc(Cl)c3F)c2cc1OCCON1CCOCC1` ? 93.29

Values were extracted from paper PMC10683025.
